measuredTarget: F508delCFTR (Homo sapiens, UniProt P13569, DEL508-508)
Construct: expressed in transfected cells; host or cells: CFBE41o- human lung-derived epithelial cells (CFBE4lo-F508delCFTR-HRP), doxycycline-inducible
Sequence (P13569 with tags, fused parts or gaps DEL508-508): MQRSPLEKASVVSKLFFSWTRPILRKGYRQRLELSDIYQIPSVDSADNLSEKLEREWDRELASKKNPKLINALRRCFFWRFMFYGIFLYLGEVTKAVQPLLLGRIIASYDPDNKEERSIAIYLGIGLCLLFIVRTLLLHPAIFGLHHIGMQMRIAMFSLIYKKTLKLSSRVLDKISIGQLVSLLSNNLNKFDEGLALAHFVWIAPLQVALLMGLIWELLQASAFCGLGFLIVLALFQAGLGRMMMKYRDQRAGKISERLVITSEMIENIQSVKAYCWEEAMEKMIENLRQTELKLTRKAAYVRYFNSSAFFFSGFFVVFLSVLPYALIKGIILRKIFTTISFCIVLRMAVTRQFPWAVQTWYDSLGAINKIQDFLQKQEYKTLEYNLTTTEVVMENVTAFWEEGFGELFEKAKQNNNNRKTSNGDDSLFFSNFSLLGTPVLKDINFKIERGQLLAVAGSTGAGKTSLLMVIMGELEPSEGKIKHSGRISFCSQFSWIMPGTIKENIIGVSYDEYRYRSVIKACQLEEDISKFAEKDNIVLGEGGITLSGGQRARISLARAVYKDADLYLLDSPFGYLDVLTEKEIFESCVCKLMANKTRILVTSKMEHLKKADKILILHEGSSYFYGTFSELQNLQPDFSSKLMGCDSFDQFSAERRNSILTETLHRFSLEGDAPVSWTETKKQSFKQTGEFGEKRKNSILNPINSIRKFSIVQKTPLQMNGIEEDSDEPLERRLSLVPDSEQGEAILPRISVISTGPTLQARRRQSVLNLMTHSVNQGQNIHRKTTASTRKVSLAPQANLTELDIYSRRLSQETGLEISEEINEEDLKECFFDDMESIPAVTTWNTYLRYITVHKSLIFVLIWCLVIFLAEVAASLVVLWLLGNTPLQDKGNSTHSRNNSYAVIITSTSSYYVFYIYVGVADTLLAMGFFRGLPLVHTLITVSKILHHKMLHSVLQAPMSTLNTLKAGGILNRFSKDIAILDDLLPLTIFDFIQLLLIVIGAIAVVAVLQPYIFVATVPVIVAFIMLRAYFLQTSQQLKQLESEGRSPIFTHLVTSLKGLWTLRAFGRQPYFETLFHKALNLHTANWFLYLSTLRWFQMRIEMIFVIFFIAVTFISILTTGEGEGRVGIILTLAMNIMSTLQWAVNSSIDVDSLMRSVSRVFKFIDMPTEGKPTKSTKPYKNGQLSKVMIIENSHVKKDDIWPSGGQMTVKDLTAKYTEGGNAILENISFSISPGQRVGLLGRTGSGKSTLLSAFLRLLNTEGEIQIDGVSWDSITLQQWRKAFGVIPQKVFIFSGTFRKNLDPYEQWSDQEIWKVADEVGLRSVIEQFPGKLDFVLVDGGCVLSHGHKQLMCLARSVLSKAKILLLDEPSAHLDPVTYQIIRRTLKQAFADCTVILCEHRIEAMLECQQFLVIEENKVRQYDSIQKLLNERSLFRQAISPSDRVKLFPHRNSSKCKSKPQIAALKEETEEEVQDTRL
measurementProtocol: Cell Surface Expression-Horse Radish Peroxidase (CSE-HRP) Assay;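 on Maximum % activity (without co-corrector): percent of the 2 µM on-plate positive control corrector response above DMSO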
Type: cell-based
conditionDetails: test compound without co-corrector; maximum at any tested concentration, normalized to on-plate positive control; read-out: Maximum % activity (without co-corrector)
Could you please report measured Emax for the items listed next?

Task: Entry CC(C)(C)[C@@H]1[C@@H](Nc2cc(C(F)(F)F)cc[n+]2[O-])[C@@H](c2ccccc2)N(C(=O)C2CCCCC2)[C@H]1C(=O)O (racemic) : reported Emax = ?
Output: < 100%

Task: Entry `COc1nc(C2CCC2)ccc1CN[C@H]1[C@H](C(C)(C)C)[C@@H](C(=O)O)N(C(=O)OC(C)C)[C@H]1c1cccnc1N(C)C` : reported Emax = ?
Output: 100 to 200%

Task: Entry COc1ccc(C(C)(C)C)cc1CN[C@H]1[C@H](C(C)(C)C)[C@@H](C(=O)O)N(C(=O)[C@@H]2[C@@H](C(F)(F)F)[C@@H]3CC[C@H]2O3)[C@H]1c1ccccc1 (relative stereo) : reported Emax = ?
Output: > 200%

Task: Entry `COc1cc(C(F)(F)F)ccc1CN[C@H]1[C@H](C(C)(C)C)[C@@H](C(=O)O)N(C(=O)CC(C)C)[C@H]1c1ccccc1` : reported Emax = ?
Output: 100 to 200%

Task: Entry O=C(O)[C@H]1[C@H](C2CC2)[C@@H](Nc2cc(C(F)(F)F)ccn2)[C@@H](c2ccccc2)N1C(=O)C1CCCCC1 (racemic) : reported Emax = ?
Output: < 100%

Task: Entry `COc1cc2c(cc1CN[C@H]1[C@H](C(C)(C)C)[C@@H](C(=O)O)N(C(=O)OC(C)C)[C@H]1c1cccnc1N(C)C)CCCC2` : reported Emax = ?
Output: 100 to 200%

----------
measuredTarget: F508delCFTR (Homo sapiens, UniProt P13569, DEL508-508)
Construct: expressed in transfected cells; host or cells: CFBE41o- human lung-derived epithelial cells (CFBE4lo-F508delCFTR-HRP), doxycycline-inducible
measurementProtocol: Cell Surface Expression-Horse Radish Peroxidase (CSE-HRP) Assay
Assay type: cell-based
conditionDetails: CSE-HRP; with co-corrector (2 μM of 3-[(2R,4R)-4-({[1-(2,2-difluoro-1,3-benzodioxol-5-yl)cyclopropyl]carbonyl}amino)-7-methoxy-3,4-dihydro-2H-chromen-2-yl]benzoic acid); read-out: EC50 (with co-corrector)
pEC50: −log10 of the molar value.
experimentalReadout: pEC50

Task: Which pEC50 is reported with F508delCFTR (Homo sapiens, UniProt P13569, DEL508-508) for this entry: COc1ccc(C(F)(F)F)cc1CN[C@H]1[C@H](C(C)(C)C)[C@@H](C(=O)O)N(C(=O)[C@@H]2CCCO2)[C@H]1c1cccnc1C1CC1 [Example I-269] ?
Output: 5.00 to 6.00

Task: Which pEC50 is reported with F508delCFTR (Homo sapiens, UniProt P13569, DEL508-508) for this entry: COc1ccc(C(C)(C)C)cc1CN[C@H]1[C@H](C(C)(C)C)[C@@H](C(=O)O)N(C(=O)C(OC)C(C)(C)C)[C@H]1c1ccccc1 (stereo partly drawn) [II-298] ?
Output: 5.00 to 6.00

Task: Which pEC50 is reported with F508delCFTR (Homo sapiens, UniProt P13569, DEL508-508) for this entry: COc1ccc(C(C)(C)C)cc1CN[C@H]1[C@H](C(C)(C)C)[C@@H](C(=O)O)N(C(=O)Cc2cccc(C)c2)[C@H]1c1ccccc1 [II-203] ?
Output: > 6.00

Task: Which pEC50 is reported with F508delCFTR (Homo sapiens, UniProt P13569, DEL508-508) for this entry: COc1cc(C(C)(C)C)ccc1CN[C@H]1[C@H](C(C)(C)C)[C@@H](C(=O)O)N(C(=O)OC(C)C)[C@H]1c1ccccc1OC [II-135] ?
Output: 5.00 to 6.00

Task: Which pEC50 is reported with F508delCFTR (Homo sapiens, UniProt P13569, DEL508-508) for this entry: COc1ccc(C(F)(F)F)cc1CN[C@@H]1[C@@H](C(C)(C)C)[C@H](C(=O)O)N(C(=O)C2CCCCC2)[C@@H]1c1ccccc1OC (racemic) [II-17] ?
Output: 5.00 to 6.00

Task: Which pEC50 is reported with F508delCFTR (Homo sapiens, UniProt P13569, DEL508-508) for this entry: COc1ccc(C(C)(C)C)cc1CN[C@H]1[C@H](C(C)(C)C)[C@@H](C(=O)O)N(C(=O)C(C)n2cc(Cl)c(C)n2)[C@H]1c1ccccc1 (single isomer, unassigned) [II-237] ?
Output: 5.00 to 6.00

Task: Which pEC50 is reported with F508delCFTR (Homo sapiens, UniProt P13569, DEL508-508) for this entry: CCOc1ccc(Br)cc1CN[C@H]1[C@H](C(C)(C)C)[C@@H](C(=O)O)N(C(=O)C2CCCCC2)[C@H]1c1ccccc1 [II-126] ?
Output: 5.00 to 6.00

Task: Which pEC50 is reported with F508delCFTR (Homo sapiens, UniProt P13569, DEL508-508) for this entry: COc1cc(CN[C@H]2[C@H](C(C)(C)C)[C@@H](C(=O)O)N(C(=O)C3CCCCC3)[C@H]2c2ccccc2)c(F)cc1Cl [II-104] ?
Output: 5.00 to 6.00

Task: Which pEC50 is reported with F508delCFTR (Homo sapiens, UniProt P13569, DEL508-508) for this entry: COc1cc(F)c(F)cc1CN[C@H]1[C@H](C(C)(C)C)[C@@H](C(=O)O)N(C(=O)C2CCCCC2)[C@H]1c1ccccc1 [II-128] ?
Output: 5.00 to 6.00

Task: Which pEC50 is reported with F508delCFTR (Homo sapiens, UniProt P13569, DEL508-508) for this entry: CC(C)(C)[C@H]1[C@H](Nc2cc(C#N)cnc2Cl)[C@H](c2ccccc2)N(C(=O)C2CCCCC2)[C@@H]1C(=O)O [II-145] ?
Output: 5.00 to 6.00

Task: Which pEC50 is reported with F508delCFTR (Homo sapiens, UniProt P13569, DEL508-508) for this entry: COc1ccc(C(C)(C)C)cc1CN[C@H]1[C@H](C(C)(C)C)[C@@H](C(=O)O)N(C(=O)Cc2ccccc2C)[C@H]1c1ccccc1 [II-205] ?
Output: > 6.00

Task: Which pEC50 is reported with F508delCFTR (Homo sapiens, UniProt P13569, DEL508-508) for this entry: CCOc1ccc(Br)cc1CN[C@H]1[C@H](C(C)(C)C)[C@@H](C(=O)O)N(C(=O)OC(C)C)[C@H]1c1cccnc1N1CCC1 [Example I-274] ?
Output: 5.00 to 6.00
